- Experimental details: NCI Yeast Anticancer Drug Screen. Data for the cln2 rad14 strain (AID 165);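 further: 0% = growth equal to vehicle treated cultures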
- Stated conditions: S. cerevisiae cln2 rad14 strain, at 50.0 µM, hits give high values
This is part of a sample that, as a whole, favours compounds with a hit. Of some 79,000 tested, about 15% had one in any assay.
Quantity name: growth inhibition (%)
Numbers only, in %.

Provide reported growth inhibition for each item, in the same order as listed.
1. O=C(CCCN1CCC(O)(c2ccc(Cl)cc2)CC1)c1ccc(F)cc1
2. O=C(Nc1ccccc1)C(=O)C(C(=O)c1ccccc1)C(c1ccccc1)c1ccccc1 (stereo unspecified)
3. O=c1c2ccccc2ncn1COCc1ccccc1

1. 70.8
2. 41.2
3. 52.4

Provide reported growth inhibition for each item, in the same order as listed.
1. CCN(CC)[P+](c1ccccc1O)(N(CC)CC)N(CC)CC
2. CSC1=NNC(SC)=NN1
3. CC(C)[N+]([O-])(CCCNc1c2ccccc2nc2cccc([N+](=O)[O-])c12)C(C)C

1. 57.6
2. 30.9
3. 96

----------
- Experimental details: NCI Yeast Anticancer Drug Screen. Data for the mgt1 strain (AID 153)
- Stated conditions: S. cerevisiae mgt1 mutant growth inhibition; at 11.0 µM; hits give high values
The panel holds about 79,000 compounds, 15% with a hit somewhere; the sample as a whole holds those more often.
Quantity name: growth inhibition (%)
Give bare numbers, in %.

molecule="C(CCSC1=NCCN1)CSC1=NCCN1 (tested in a mixture with another compound)" quantity_name="growth inhibition" unit=% experimental_result=89
molecule=O=[n+]1c2ccc(Cl)cc2n([O-])c2ccc(Cl)cc21 quantity_name="growth inhibition" unit=% experimental_result=2
molecule="CC(O)C(O)C(O)C(/C=N\\Nc1ccccc1)=N/Nc1ccccc1 (stereo not drawn)" quantity_name="growth inhibition" unit=% experimental_result=10
molecule=N#CN1C2CCC1CC(=O)C2 quantity_name="growth inhibition" unit=% experimental_result=-13
molecule="O=C1OC(=O)C2CCCC3CCCC1C32 (stereo not drawn)" quantity_name="growth inhibition" unit=% experimental_result=82
molecule=CC(=O)Cc1ccc[cH-]1.[Fe+2].c1cc[cH-]c1 quantity_name="growth inhibition" unit=% experimental_result=21

Provide reported growth inhibition for each item, in the same order as listed.
1. Cn1ccnc1Oc1ccc(Cl)cc1
2. COc1ccc(/C=C/C(=O)C(C)(C)Br)cc1
3. O=[N+]([O-])c1ccc(=S)[nH]c1
4. CSc1nc(=S)[nH]c2c1c(C)nn2-c1ccccc1
5. c1ccc2c(c1)sc1nc3ccncc3nc12
6. CC(=O)SCCC[Si](C)(C)CCCSC(C)=O
7. O=c1ssc2ncccc12

0
18
1
-3
-1
-5
41

----------
- Experimental details: NCI Yeast Anticancer Drug Screen. Data for the rad14 strain (AID 159);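 further: 0% = growth of vehicle-treated control cultures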
- Stated conditions: S. cerevisiae rad14 strain growth inhibition; at 100.0 µM
Compounds without any hit were thinned out: in the full panel of roughly 79,000, 15% have a hit. Calls of active or inactive are those of the source. Rule as the data show it: active = growth inhibition above about 70%; inactive = the rest.
Write down the outcome that applies. Available outcomes: active, inactive

molecule=O=C1c2ccccc2C(=O)c2c(NC3CCCCC3)ccc(Nc3ccc(S(=O)(=O)O)cc3)c21 class=active

Which outcome was entered for the molecule `Nc1ncncc1C(C1=C(O)COC1=O)C1=C(O)COC1=O` in this test? inactive

Check CC1C(NNc2ccccc2)Oc2cc3c(cc2C1c1ccccc1O)OCO3 (stereo unspecified) too. active

Check CCCN(CCC)CC(O)c1cc(-c2ccc(Cl)cc2)nc2c(C)c(Cl)ccc12 (stereo unspecified) too. active

Check `COc1cc2ccc(/C=C\[N+](=O)[O-])cc2cc1OC` too. active

Check `Oc1ccc(NCn2c(=S)sc3ccccc32)cc1` too. active
